Give EC50 for every item shown.
target-under-test: T1, human CD20 (human, UniProt P11836 1-297)
T1 construct: whole, on cells; On Ramos or Raji B cells (natural) or on transfected CHO-K1 cells, as said under assay or readout; also called CD20 on Ramos cells; CD20 on Raji cells
T1 sequence (looked up): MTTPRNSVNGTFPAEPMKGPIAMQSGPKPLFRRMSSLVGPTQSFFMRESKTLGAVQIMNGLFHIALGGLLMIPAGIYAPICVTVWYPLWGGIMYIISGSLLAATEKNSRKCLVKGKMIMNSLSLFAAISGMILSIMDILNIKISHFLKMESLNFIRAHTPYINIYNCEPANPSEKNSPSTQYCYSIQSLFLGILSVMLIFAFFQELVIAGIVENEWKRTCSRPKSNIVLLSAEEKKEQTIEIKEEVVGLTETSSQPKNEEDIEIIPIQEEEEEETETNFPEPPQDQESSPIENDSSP
assay-summary: flow cytometry on human CD20 positive Ramos cells

binder: T017000016 (bispecific antibody, Bispecific Nanobody construct with tags, expressed in Pichia; also called 20CD019C07-35GS-T0170033G03-FLAG3-HIS6; CD20xCD3 (cluster C)) EVQLVESGGGLVQPGGSLRLSCTFSGGTFSSYTMGWFRQAPGKEREFVAEVRWGGVTTYSNSLKDRFSISEDSVKNAVYLQMNSLKPEDTAVYYCAAVRQMYMTVVPDYWGQGTLVTVSSGGGGSGGGGSGGGGSGGGGSGGGGSGGGGSGGGGSEVQLVESGGGSVQAGGSLRLSCAASGRTFSTNPMGWFRQVPGKERELIAAVRWADGNTFYADSVKGRFTISRDNAKKTVYLQMNSLKSEDTATYYCAAGRPWSAYHSPAEYVHWGQGTLVTVSSGAADYKDHDGDYKDHDIDYKDDDDKGAAHHHHHH
EC50: 1.5 nM

binder: T017000021 (bispecific antibody, Bispecific Nanobody construct with tags, expressed in Pichia; also called T0170033G03-35GS-20CD019C07-FLAG3-HIS6; CD3xCD20 (cluster C)) EVQLVESGGGSVQAGGSLRLSCAASGRTFSTNPMGWFRQVPGKERELIAAVRWADGNTFYADSVKGRFTISRDNAKKTVYLQMNSLKSEDTATYYCAAGRPWSAYHSPAEYVHWGQGTLVTVSSGGGGSGGGGSGGGGSGGGGSGGGGSGGGGSGGGGSEVQLVESGGGLVQPGGSLRLSCTFSGGTFSSYTMGWFRQAPGKEREFVAEVRWGGVTTYSNSLKDRFSISEDSVKNAVYLQMNSLKPEDTAVYYCAAVRQMYMTVVPDYWGQGTLVTVSSGAADYKDHDGDYKDHDIDYKDDDDKGAAHHHHHH
EC50: 4.7 nM

binder: T017000040 (bispecific antibody, Bispecific Nanobody construct with tags, expressed in Pichia; also called T0170060E11-35GS-20CD019C07-FLAG3-HIS6; CD3xCD20 (cluster B)) EVQLVESGGGLVQPGGSLRLSCAASGDIYKSFDMGWYRQAPGKQRDLVAVIGSRGNNRGRTNYADSVKGRFTISRDGTGNTVYLLMNKLRPEDTAIYYCNTAPLVAGRPWGRGTLVTVSSGGGGSGGGGSGGGGSGGGGSGGGGSGGGGSGGGGSEVQLVESGGGLVQPGGSLRLSCTFSGGTFSSYTMGWFRQAPGKEREFVAEVRWGGVTTYSNSLKDRFSISEDSVKNAVYLQMNSLKPEDTAVYYCAAVRQMYMTVVPDYWGQGTLVTVSSGAADYKDHDGDYKDHDIDYKDDDDKGAAHHHHHH
EC50: 32 nM

Please look at this binder and report its EC50: T017000036 (bispecific antibody, Bispecific Nanobody construct with tags, expressed in Pichia; also called T0170117G03-35GS-20CD019C07-FLAG3-HIS6; CD3xCD20 (cluster A)) EVQLVESGGGPVQAGGSLRLSCAASGRTYRGYSMGWFRQAPGKEREFVAAIVWSGGNTYYEDSVKGRFTISRDNAKNTMYLQMTSLKPEDSATYYCAAKIRPYIFKIAGQYDYWGQGTLVTVSSGGGGSGGGGSGGGGSGGGGSGGGGSGGGGSGGGGSEVQLVESGGGLVQPGGSLRLSCTFSGGTFSSYTMGWFRQAPGKEREFVAEVRWGGVTTYSNSLKDRFSISEDSVKNAVYLQMNSLKPEDTAVYYCAAVRQMYMTVVPDYWGQGTLVTVSSGAADYKDHDGDYKDHDIDYKDDDDKGAAHHHHHH 21 nM
